Origin of the recorded values: patent EP2658867B1

Quick reference for signal among some binders
biological target: T1, integrin αVβ5 (UniProt P06756 31-992; P18084 24-719); assay: ELISA, integrin coated, anti-MICA-HRP
T1 construct: Coated on the ELISA plate
T1 sequence (P06756 31-992, chain 1 of 2): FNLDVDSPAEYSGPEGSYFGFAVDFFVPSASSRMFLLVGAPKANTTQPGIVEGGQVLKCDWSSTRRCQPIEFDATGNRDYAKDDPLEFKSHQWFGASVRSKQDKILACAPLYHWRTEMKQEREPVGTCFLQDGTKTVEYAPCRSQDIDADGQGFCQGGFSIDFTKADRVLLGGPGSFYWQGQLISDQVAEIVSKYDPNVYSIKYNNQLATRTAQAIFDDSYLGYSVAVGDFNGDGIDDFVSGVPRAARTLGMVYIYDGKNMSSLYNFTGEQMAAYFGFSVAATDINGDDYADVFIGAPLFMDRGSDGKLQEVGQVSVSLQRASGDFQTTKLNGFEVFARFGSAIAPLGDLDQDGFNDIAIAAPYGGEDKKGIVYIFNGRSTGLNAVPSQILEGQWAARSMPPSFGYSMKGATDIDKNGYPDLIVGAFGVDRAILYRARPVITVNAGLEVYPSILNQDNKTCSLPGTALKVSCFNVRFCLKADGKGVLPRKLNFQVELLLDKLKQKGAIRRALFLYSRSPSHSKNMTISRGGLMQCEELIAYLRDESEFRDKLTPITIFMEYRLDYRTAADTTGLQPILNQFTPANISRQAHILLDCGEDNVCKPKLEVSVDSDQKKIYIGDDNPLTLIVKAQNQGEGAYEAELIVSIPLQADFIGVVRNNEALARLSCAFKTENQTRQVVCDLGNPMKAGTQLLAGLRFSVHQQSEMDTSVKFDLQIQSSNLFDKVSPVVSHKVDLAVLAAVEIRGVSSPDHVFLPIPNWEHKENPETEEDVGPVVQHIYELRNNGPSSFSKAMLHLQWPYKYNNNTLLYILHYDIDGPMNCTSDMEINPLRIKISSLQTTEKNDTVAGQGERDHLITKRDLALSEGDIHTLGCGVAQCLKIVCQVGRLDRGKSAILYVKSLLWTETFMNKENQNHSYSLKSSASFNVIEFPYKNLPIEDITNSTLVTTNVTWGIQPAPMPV
T1 sequence (P18084 24-719, chain 2 of 2): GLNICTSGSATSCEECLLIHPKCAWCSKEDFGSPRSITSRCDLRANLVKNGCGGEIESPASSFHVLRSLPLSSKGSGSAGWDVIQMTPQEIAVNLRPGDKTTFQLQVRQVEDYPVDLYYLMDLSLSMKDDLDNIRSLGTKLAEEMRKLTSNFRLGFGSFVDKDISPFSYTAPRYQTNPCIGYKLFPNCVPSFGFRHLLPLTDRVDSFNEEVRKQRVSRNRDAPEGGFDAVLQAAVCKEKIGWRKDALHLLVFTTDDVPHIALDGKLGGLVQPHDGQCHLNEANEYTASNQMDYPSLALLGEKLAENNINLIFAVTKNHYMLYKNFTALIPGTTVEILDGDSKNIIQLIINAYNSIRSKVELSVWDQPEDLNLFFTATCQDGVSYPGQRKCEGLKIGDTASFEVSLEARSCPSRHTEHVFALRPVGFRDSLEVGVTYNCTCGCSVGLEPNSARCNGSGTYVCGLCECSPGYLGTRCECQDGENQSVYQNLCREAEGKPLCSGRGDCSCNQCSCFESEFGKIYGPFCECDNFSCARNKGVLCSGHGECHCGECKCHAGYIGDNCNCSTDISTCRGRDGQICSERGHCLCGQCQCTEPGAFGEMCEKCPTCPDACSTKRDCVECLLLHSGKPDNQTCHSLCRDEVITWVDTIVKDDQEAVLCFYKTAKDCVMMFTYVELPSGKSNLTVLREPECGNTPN
Only the number, expressed in OD, is required.

Sample records with signal:
>>> value_reported("soluble MICA generated by pKK45 (extended loop 3.3sp in loop 1) (designed binder) HHHHHHEPHSLRYNLTVLSWDGSVQSGFLTEVHLDGQPFLRCDRQKCRAKPQGQWAEDVLGNKTWDRETRDLTGNGKDLRMTLAHIKDQKEGLHSLQEIRVCEIHEDNSTRSSQHFYYDGELFLSQNLETEEWTMPQSSRAQTLAMNVRNFLKEDAMKTKTHYHAMHADCLQELRRYLKSGVVLRRTVPPMVNVTSGGSGGGSRVPRGDSDLTSGGSGGGVTCRASGFYPWNITLSWRQDGVSLSHDTQQWGDVLPDGNGTYQTWVATRICQGEEQRFTCYMEHSGNHSTHPVPSGK")
0.41
>>> value_reported("soluble MICA generated by pKK49 (extended loop 3.3sp in loop 3) (designed binder) EPHSLRYNLTVLSWDGSVQSGFLTEVHLDGQPFLRCDRQKCRAKPQGQWAEDVLGNKTWDRETRDLTGNGKDLRMTLAHIKDQKEGLHSLQEIRVCEIHEDNSTRSSQHFYYDGELFLSQNLETKEWTMPQSSRAQTLAMNVRNFLKEDAMKTKTHYHAMHADCLQELRRYLKSGVVLRRTVPPMVNVTRSEASEGNITVTCRASGFYPWNITLSWRQDGVSLSHDTQQWGDVLPDGNGTYQTWVATRISGGSGGGSRVPRGDSDLTSGGSGGGCYMEHSGNHSTHPVPSGK")
0.478
>>> value_reported("soluble MICA generated by pKK46 (extended loop 5.1sp in loop 1) (designed binder) HHHHHHEPHSLRYNLTVLSWDGSVQSGFLTEVHLDGQPFLRCDRQKCRAKPQGQWAEDVLGNKTWDRETRDLTGNGKDLRMTLAHIKDQKEGLHSLQEIRVCEIHEDNSTRSSQHFYYDGELFLSQNLETEEWTMPQSSRAQTLAMNVRNFLKEDAMKTKTHYHAMHADCLQELRRYLKSGVVLRRTVPPMVNVTSGGSGGGSVTRGDTFTQSSGGSGGGVTCRASGFYPWNITLSWRQDGVSLSHDTQQWGDVLPDGNGTYQTWVATRICQGEEQRFTCYMEHSGNHSTHPVPSGK")
1.06

Exercise: Consider the binder shown here: soluble MICA generated by pKK41 (loop 5.2 in loop 1) (designed binder) HHHHHHEPHSLRYNLTVLSWDGSVQSGFLTEVHLDGQPFLRCDRQKCRAKPQGQWAEDVLGNKTWDRETRDLTGNGKDLRMTLAHIKDQKEGLHSLQEIRVCEIHEDNSTRSSQHFYYDGELFLSQNLETEEWTMPQSSRAQTLAMNVRNFLKEDAMKTKTHYHAMHADCLQELRRYLKSGVVLRRTVPPMVNVTRGDTFTQSVTCRASGFYPWNITLSWRQDGVSLSHDTQQWGDVLPDGNGTYQTWVATRICQGEEQRFTCYMEHSGNHSTHPVPSGK What is its recorded signal?
Key: 0.65
